Biological target: T1, GST-MAST2 PDZ domain 1 fusion protein (human), Q6P0Q8
T1 chain: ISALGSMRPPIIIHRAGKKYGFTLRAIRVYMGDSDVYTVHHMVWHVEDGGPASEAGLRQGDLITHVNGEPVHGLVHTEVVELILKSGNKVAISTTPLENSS
Test: G3 assay titration, immobilised GST-PDZ
No end group written: not given here.
QUANTITY_NAME: pEC50
Lab note: report pEC50 as minus log10 of the concentration in molar units, number only.

Requested read-out: pEC50. Entry: YGRKKRRQRRRSTNSVRLML (not fully specified) 6.96

Taken from patent US20050164933A1.
